B1: CPEB3 Ribozyme (parent)
chain: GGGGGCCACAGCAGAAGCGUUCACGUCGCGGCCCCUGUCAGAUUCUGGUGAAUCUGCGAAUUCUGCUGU

# Variants of: B1
# protocol: self-cleavage, relative activity (ratio to wild type); higher = more cleavage; co-transcriptional
assayReadout: self-cleavage

C22A U61C ... 0.164
A40G G48C ... 0.98
C22G A23G ... 0.217
C32G C66G ... 0.227
G47A G56A ... 1
C22G C54U ... 0.204
U46G U61C ... 0.941
C24A G41A ... 0.391
C6A A16U ... 0.159
U21C A51U ... 0.861
G2C U20C ... 0.0285

The values you see were collected from the RNAGym collection of RNA variant scans (doi:10.7554/elife.80360).
